- System tested: T1, wild-type human PTH/PTHrP receptor (hP1R-WT) (human, UniProt Q03431 27-593)
- T1 construct: whole, on cells; HKRK-B28 cells express ~280,000 receptors per cell; also called PTH-1 receptor; PTH-1R
- T1 sequence (looked up): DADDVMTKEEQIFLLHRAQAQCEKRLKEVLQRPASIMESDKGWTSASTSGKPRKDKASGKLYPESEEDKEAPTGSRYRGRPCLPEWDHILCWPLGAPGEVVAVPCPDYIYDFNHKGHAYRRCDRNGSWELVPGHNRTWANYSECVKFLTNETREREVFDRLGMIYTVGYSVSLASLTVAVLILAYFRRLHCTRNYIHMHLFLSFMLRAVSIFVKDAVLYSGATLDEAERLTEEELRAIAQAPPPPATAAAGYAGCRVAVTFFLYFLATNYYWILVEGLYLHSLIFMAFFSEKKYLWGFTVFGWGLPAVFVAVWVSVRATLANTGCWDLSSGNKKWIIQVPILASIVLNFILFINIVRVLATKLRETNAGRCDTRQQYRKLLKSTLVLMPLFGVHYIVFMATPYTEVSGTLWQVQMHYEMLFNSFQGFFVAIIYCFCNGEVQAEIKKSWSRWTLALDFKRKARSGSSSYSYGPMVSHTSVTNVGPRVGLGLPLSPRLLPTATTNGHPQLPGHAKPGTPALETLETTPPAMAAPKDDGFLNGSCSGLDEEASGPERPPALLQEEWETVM
- Assay method text: competition binding, 125I-[M]PTH(1-21) tracer, HKRK-B28 cells, 4 h at 4 C
pIC50: −log10 of the molar value. Square brackets hold non-standard residues; d marks the D form. Ends that are not written are not given here. hArg = N=C(N)NCCCC[C@H](N)C(=O)O; Aib = CC(C)(N)C(=O)O
Form field: pIC50 (one value per entry).
Experimental endpoint: pIC50

INSERT INTO assay_data (binder, experimental_endpoint, reported) VALUES
  ('AVAEIQLMHQ[hArg][Aib]KW-NH2 (N-terminus assumed; SMILES CC[C@H](C)[C@H](NC(=O)[C@H](CCC(=O)O)NC(=O)[C@H](C)NC(=O)[C@@H](NC(=O)[C@H](C)N)C(C)C)C(=O)N[C@@H](CCC(N)=O)C(=O)N[C@@H](CC(C)C)C(=O)N[C@@H](CCSC)C(=O)N[C@@H](Cc1c[nH]cn1)C(=O)N[C@@H](CCC(N)=O)C(=O)N[C@@H](CCCCNC(=N)N)C(=O)NC(C)(C)C(=O)N[C@@H](CCCCN)C(=O)N[C@@H](Cc1c[nH]c2ccccc12)C(N)=O, Aib scan of [M]PTH(1-14); Aib replaces the Ala^12 of [M]; also called 633 Aib-12) [[Aib^12,M]PTH(1-14)]', 'pIC50', 4.82),
  ('AVAEIQLMHQ[hArg]AK[Aib]-NH2 (N-terminus assumed; SMILES CC[C@H](C)[C@H](NC(=O)[C@H](CCC(=O)O)NC(=O)[C@H](C)NC(=O)[C@@H](NC(=O)[C@H](C)N)C(C)C)C(=O)N[C@@H](CCC(N)=O)C(=O)N[C@@H](CC(C)C)C(=O)N[C@@H](CCSC)C(=O)N[C@@H](Cc1c[nH]cn1)C(=O)N[C@@H](CCC(N)=O)C(=O)N[C@@H](CCCCNC(=N)N)C(=O)N[C@@H](C)C(=O)N[C@@H](CCCCN)C(=O)NC(C)(C)C(N)=O, Aib scan of [M]PTH(1-14); Aib replaces the Trp^14 of [M]; also called 635 Aib-14) [[Aib^14,M]PTH(1-14)]', 'pIC50', 4.10),
  ('AVAEIQLMH[Aib][hArg]AKW-NH2 (N-terminus assumed; SMILES CC[C@H](C)[C@H](NC(=O)[C@H](CCC(=O)O)NC(=O)[C@H](C)NC(=O)[C@@H](NC(=O)[C@H](C)N)C(C)C)C(=O)N[C@@H](CCC(N)=O)C(=O)N[C@@H](CC(C)C)C(=O)N[C@@H](CCSC)C(=O)N[C@@H](Cc1c[nH]cn1)C(=O)NC(C)(C)C(=O)N[C@@H](CCCCNC(=N)N)C(=O)N[C@@H](C)C(=O)N[C@@H](CCCCN)C(=O)N[C@@H](Cc1c[nH]c2ccccc12)C(N)=O, Aib scan of [M]PTH(1-14); Aib replaces the Gln^10 of [M]; also called 631 Aib-10) [[Aib^10,M]PTH(1-14)]', 'pIC50', 5.04),
  ('AVA[Aib]IQLMHQ[hArg]AKW-NH2 (N-terminus assumed; SMILES CC[C@H](C)[C@H](NC(=O)C(C)(C)NC(=O)[C@H](C)NC(=O)[C@@H](NC(=O)[C@H](C)N)C(C)C)C(=O)N[C@@H](CCC(N)=O)C(=O)N[C@@H](CC(C)C)C(=O)N[C@@H](CCSC)C(=O)N[C@@H](Cc1c[nH]cn1)C(=O)N[C@@H](CCC(N)=O)C(=O)N[C@@H](CCCCNC(=N)N)C(=O)N[C@@H](C)C(=O)N[C@@H](CCCCN)C(=O)N[C@@H](Cc1c[nH]c2ccccc12)C(N)=O, Aib scan of [M]PTH(1-14); also called 625 Aib-4) [[Aib^4,M]PTH(1-14)]', 'pIC50', 3.83);

Data credit: patent US20050026839A1
